Data provenance: patent US20060093617A1

- Target Or Test System: HLA-A02 (Homo sapiens, UniProt P04439, D140Y/D185E/D98H/E176V/E277Q/G131W/G231S/I119V/I121R/I166T/I218V/L300P/L318F/N151K/N90K/P208A/P217A/Q86G/Q94H/R138H/R169H/T345S)
- Experiment Summary: Competition binding assay using soluble HLA class I
Where a SMILES comes first, the peptide text is derived from it.
Measured Quantity: IC50 (nM)
The reply should be a number in nM, with the unit left off.

Consider the worked cases shown below.
{"columns": ["Molecule", "Unit Info", "IC50"],
 "data": [
  ["CC[C@H](C)[C@H](NC(=O)[C@@H](N)CCC(N)=O)C(=O)N[C@H](C(=O)NCC(=O)NCC(=O)N[C@H](C(=O)N[C@@H](Cc1ccc(O)cc1)C(=O)N[C@@H](CC(C)C)C(=O)N[C@@H](CC(C)C)C(=O)O)C(C)C)C(C)C", "nM", 228],
  ["CC[C@H](C)[C@H](NC(=O)[C@H](CO)NC(=O)[C@H](Cc1ccccc1)NC(=O)[C@H](CO)NC(=O)[C@H](CS)NC(=O)CNC(=O)[C@@H]1CCCN1C(=O)[C@H](CC(C)C)NC(=O)[C@@H](N)CC(N)=O)C(=O)O (H-NLPGCSFSI-OH)", "nM", 83],
  ["CC(C)C[C@H](NC(=O)[C@H](CS)NC(=O)[C@H](CO)NC(=O)[C@H](CC(C)C)NC(=O)[C@H](CC(C)C)NC(=O)[C@H](C)NC(=O)[C@H](CC(C)C)NC(=O)[C@H](CC(C)C)NC(=O)[C@@H](N)Cc1ccccc1)C(=O)O", "nM", 136],
  ["CC(C)C[C@H](NC(=O)[C@@H](NC(=O)[C@H](CC(C)C)NC(=O)[C@@H](NC(=O)[C@@H](N)CCCCN)C(C)C)C(C)C)C(=O)N[C@@H](CC(N)=O)C(=O)N1CCC[C@H]1C(=O)N[C@@H](CO)C(=O)N[C@H](C(=O)O)C(C)C (H-KVLVLNPSV-OH)", "nM", 50]
]}

Now let's try a different one.
In plain terms, CC(C)C[C@H](NC(=O)[C@H](CCCNC(=N)N)NC(=O)[C@H](Cc1ccc(O)cc1)NC(=O)[C@@H]1CCCN1C(=O)[C@H](Cc1ccc(O)cc1)NC(=O)[C@H](CC(=O)O)NC(=O)[C@@H](NC(=O)[C@H](CC(C)C)NC(=O)[C@@H](N)CS)C(C)C)C(=O)O (H-CLVDYPYRL-OH; N-terminus and C-terminus assumed) has a documented IC50 of 437

====

Listed here: items and their measured pIC50.
- Target Or Test System: HLA-A02 (Homo sapiens, UniProt P04439, D140Y/D185E/D98H/E176V/E277Q/G131W/G231S/I119V/I121R/I166T/I218V/L300P/L318F/N151K/N90K/P208A/P217A/Q86G/Q94H/R138H/R169H/T345S)
- Experiment Summary: Competition binding assay using soluble HLA class I
Where a SMILES comes first, the peptide text is derived from it.
// returns pIC50 (minus log10 of molar concentration), number only

{"columns": ["Molecule", "pIC50"],
 "data": [
  ["CC(C)C[C@H](NC(=O)[C@@H](N)Cc1ccc(O)cc1)C(=O)N[C@@H](Cc1ccccc1)C(=O)N[C@@H](CC(N)=O)C(=O)N[C@@H](Cc1c[nH]c2ccccc12)C(=O)N[C@@H](C)C(=O)N[C@H](C(=O)N[C@@H](CCCNC(=N)N)C(=O)N[C@H](C(=O)O)[C@@H](C)O)C(C)C (H-YLFNWAVRT-OH; N-terminus and C-terminus assumed)", 7.54]
]}

Recorded result, CC[C@H](C)[C@H](NC(=O)[C@@H](N)Cc1ccc(O)cc1)C(=O)N1CCC[C@H]1C(=O)N[C@@H](CC(C)C)C(=O)N[C@H](C(=O)NCC(=O)N[C@@H](C)C(=O)N1CCC[C@H]1C(=O)N[C@@H](CC(C)C)C(=O)O)C(C)C , pIC50: 6.47

The reported pIC50 of the molecule CC[C@H](C)[C@H](NC(=O)[C@@H](NC(=O)[C@H](CC(C)C)NC(=O)[C@H](CS)NC(=O)[C@H](CO)NC(=O)[C@H](CC(C)C)NC(=O)[C@@H](N)CC(C)C)[C@@H](C)O)C(=O)N1CCC[C@H]1C(=O)N[C@@H](C)C(=O)O was 7.92

get_value(item= CSCC[C@H](NC(=O)[C@@H](N)CO)C(=O)N[C@H](C(=O)NCC(=O)N[C@@H](CC(N)=O)C(=O)N[C@@H](Cc1c[nH]c2ccccc12)C(=O)N[C@@H](C)C(=O)N[C@@H](CCCCN)C(=O)N[C@H](C(=O)O)C(C)C)C(C)C (H-SMVGNWAKV-OH; N-terminus and C-terminus assumed) , readout=pIC50) returns 6.80

Per the records, this molecule ( CC[C@H](C)[C@H](N)C(=O)N[C@@H](CCSC)C(=O)N[C@@H](C)C(=O)N[C@@H](CS)C(=O)N[C@@H](CCSC)C(=O)N[C@@H](CO)C(=O)N[C@@H](C)C(=O)N[C@@H](CC(=O)O)C(=O)N[C@@H](CC(C)C)C(=O)O (H-IMACMSADL-OH; N-terminus and C-terminus assumed) ) has pIC50 equal to 7.18

Lab note: CC(C)C[C@H](NC(=O)[C@H](C)NC(=O)[C@H](CC(C)C)NC(=O)[C@H](CC(C)C)NC(=O)[C@@H](N)Cc1ccccc1)C(=O)N[C@@H](CC(C)C)C(=O)N[C@@H](CO)C(=O)N[C@@H](CS)C(=O)N[C@@H](CC(C)C)C(=O)N[C@H](C(=O)O)[C@@H](C)O gave pIC50 of 6.88

Per the record, CC[C@H](C)[C@H](N)C(=O)N[C@@H](CCSC)C(=O)N[C@@H](Cc1ccc(O)cc1)C(=O)N[C@@H](C)C(=O)N1CCC[C@H]1C(=O)N[C@H](C(=O)N[C@@H](CC(C)C)C(=O)N[C@@H](Cc1c[nH]c2ccccc12)C(=O)N[C@@H](C)C(=O)O)[C@@H](C)O has pIC50 of 7.34
